# PROTOCOL DETAILS: Volume of distribution at steady state in mouse at 5 mg/kg, iv measured after 8 hrs
# Format: ADME, organism-based
# EXPERIMENTAL CONTEXT: in vivo, read-out: Vdss

COMPOUND SMILES | UNITS LABEL | Vd
C=C[C@]1(C)C[C@@H](OC(=O)CSc2cc(=O)oc3cc(OC)ccc23)[C@]2(C)[C@H](C)CC[C@]3(CCC(=O)[C@H]32)[C@@H](C)[C@@H]1O | L/kg | 1.76

---

# Test system: Staphylococcus aureus
# PROTOCOL DETAILS: Antibacterial activity against methicillin-resistant Staphylococcus aureus ATCC 33591 assessed as bacterial growth inhibition measured after 20 hrs by broth dilution method
# Assay type: functional

COMPOUND SMILES | UNITS LABEL | MIC
C=C[C@]1(C)C[C@@H](OC(=O)CSc2cc(=O)oc3cc(Br)ccc23)[C@]2(C)[C@H](C)CC[C@]3(CCC(=O)[C@H]32)[C@@H](C)[C@@H]1O | µg/mL | 0.031
C=C[C@]1(C)C[C@@H](OC(=O)CSc2cc(=O)oc3cc(C)ccc23)[C@]2(C)[C@H](C)CC[C@]3(CCC(=O)[C@H]32)[C@@H](C)[C@@H]1O | µg/mL | 0.031
C=C[C@]1(C)C[C@@H](OC(=O)CSCCOc2cc(=O)oc3ccc(C)cc23)[C@]2(C)[C@H](C)CC[C@]3(CCC(=O)[C@H]32)[C@@H](C)[C@@H]1O | µg/mL | 0.25
C=C[C@]1(C)C[C@@H](OC(=O)CSCCOc2cc(=O)oc3cc(F)ccc23)[C@]2(C)[C@H](C)CC[C@]3(CCC(=O)[C@H]32)[C@@H](C)[C@@H]1O | µg/mL | 0.125

---

# Tested on: Staphylococcus aureus
# PROTOCOL DETAILS: Antibacterial activity against methicillin-resistant Staphylococcus aureus ATCC 33591 assessed as bacterial growth inhibition measured after 20 hrs by broth dilution method
# Type: functional
Rule: measured MIC below 0.1 µg/mL gets y; anything equal to or greater than 0.1 µg/mL gets n.

COMPOUND SMILES | SYSTEM | CLASSIFICATION
C=C[C@]1(C)C[C@@H](OC(=O)CSc2cc(=O)oc3ccc(OC)cc23)[C@]2(C)[C@H](C)CC[C@]3(CCC(=O)[C@H]32)[C@@H](C)[C@@H]1O | Staphylococcus aureus | n
C=C[C@]1(C)C[C@@H](OC(=O)CSc2cc(=O)oc3ccc([N+](=O)[O-])cc23)[C@]2(C)[C@H](C)CC[C@]3(CCC(=O)[C@H]32)[C@@H](C)[C@@H]1O | Staphylococcus aureus | y
C=C[C@]1(C)C[C@@H](OC(=O)CSc2cc(=O)oc3cc(Cl)ccc23)[C@]2(C)[C@H](C)CC[C@]3(CCC(=O)[C@H]32)[C@@H](C)[C@@H]1O | Staphylococcus aureus | y
C=C[C@]1(C)C[C@@H](OC(=O)CSCCOc2cc(=O)oc3ccc([N+](=O)[O-])cc23)[C@]2(C)[C@H](C)CC[C@]3(CCC(=O)[C@H]32)[C@@H](C)[C@@H]1O | Staphylococcus aureus | n
C=C[C@]1(C)C[C@@H](OC(=O)CSCCOc2cc(=O)oc3cc(Br)ccc23)[C@]2(C)[C@H](C)CC[C@]3(CCC(=O)[C@H]32)[C@@H](C)[C@@H]1O | Staphylococcus aureus | n
C=C[C@]1(C)C[C@@H](OC(=O)CSc2cc(=O)oc3ccc(C)cc23)[C@]2(C)[C@H](C)CC[C@]3(CCC(=O)[C@H]32)[C@@H](C)[C@@H]1O | Staphylococcus aureus | n
C=C[C@]1(C)C[C@@H](OC(=O)CSCCOc2cc(=O)oc3cc(C)ccc23)[C@]2(C)[C@H](C)CC[C@]3(CCC(=O)[C@H]32)[C@@H](C)[C@@H]1O | Staphylococcus aureus | n
C=C[C@]1(C)C[C@@H](OC(=O)CSc2cc(=O)oc3ccc(F)cc23)[C@]2(C)[C@H](C)CC[C@]3(CCC(=O)[C@H]32)[C@@H](C)[C@@H]1O | Staphylococcus aureus | y
C=C[C@]1(C)C[C@@H](OC(=O)CSc2cc(=O)oc3ccc(Br)cc23)[C@]2(C)[C@H](C)CC[C@]3(CCC(=O)[C@H]32)[C@@H](C)[C@@H]1O | Staphylococcus aureus | n
C=C[C@]1(C)C[C@@H](OC(=O)CSCCOc2cc(=O)oc3ccc(OC)cc23)[C@]2(C)[C@H](C)CC[C@]3(CCC(=O)[C@H]32)[C@@H](C)[C@@H]1O | Staphylococcus aureus | n
C=C[C@]1(C)C[C@@H](OC(=O)CO)[C@]2(C)[C@H](C)CC[C@]3(CCC(=O)[C@H]32)[C@@H](C)[C@@H]1O | Staphylococcus aureus | n
C=C[C@]1(C)C[C@@H](OC(=O)CSc2cc(=O)oc3cc(F)ccc23)[C@]2(C)[C@H](C)CC[C@]3(CCC(=O)[C@H]32)[C@@H](C)[C@@H]1O | Staphylococcus aureus | y
C=C[C@]1(C)C[C@@H](OC(=O)CSCCN(CC)CC)[C@]2(C)[C@H](C)CC[C@]3(CCC(=O)[C@H]32)[C@@H](C)[C@@H]1O | Staphylococcus aureus | n
C=C[C@]1(C)C[C@@H](OC(=O)CSCCOc2cc(=O)oc3ccccc23)[C@]2(C)[C@H](C)CC[C@]3(CCC(=O)[C@H]32)[C@@H](C)[C@@H]1O | Staphylococcus aureus | y
C=C[C@]1(C)C[C@@H](OC(=O)CSc2cc(=O)oc3cc(OC)ccc23)[C@]2(C)[C@H](C)CC[C@]3(CCC(=O)[C@H]32)[C@@H](C)[C@@H]1O | Staphylococcus aureus | y
C=C[C@]1(C)C[C@@H](OC(=O)CSCCOc2cc(=O)oc3ccc(Cl)cc23)[C@]2(C)[C@H](C)CC[C@]3(CCC(=O)[C@H]32)[C@@H](C)[C@@H]1O | Staphylococcus aureus | n
C=C[C@]1(C)C[C@@H](OC(=O)CSCCOc2cc(=O)oc3ccc(Br)cc23)[C@]2(C)[C@H](C)CC[C@]3(CCC(=O)[C@H]32)[C@@H](C)[C@@H]1O | Staphylococcus aureus | n
C=C[C@]1(C)C[C@@H](OC(=O)CSCCOc2cc(=O)oc3ccc(F)cc23)[C@]2(C)[C@H](C)CC[C@]3(CCC(=O)[C@H]32)[C@@H](C)[C@@H]1O | Staphylococcus aureus | n
C=C[C@]1(C)C[C@@H](OC(=O)CSCCOc2cc(=O)oc3cc(Cl)ccc23)[C@]2(C)[C@H](C)CC[C@]3(CCC(=O)[C@H]32)[C@@H](C)[C@@H]1O | Staphylococcus aureus | n
C=C[C@]1(C)C[C@@H](OC(=O)CSc2cc(=O)oc3ccc(Cl)cc23)[C@]2(C)[C@H](C)CC[C@]3(CCC(=O)[C@H]32)[C@@H](C)[C@@H]1O | Staphylococcus aureus | n
C=C[C@]1(C)C[C@@H](OC(=O)CSc2cc(=O)oc3ccccc23)[C@]2(C)[C@H](C)CC[C@]3(CCC(=O)[C@H]32)[C@@H](C)[C@@H]1O | Staphylococcus aureus | y
C=C[C@]1(C)C[C@@H](OC(=O)CSCCOc2cc(=O)oc3cc(OC)ccc23)[C@]2(C)[C@H](C)CC[C@]3(CCC(=O)[C@H]32)[C@@H](C)[C@@H]1O | Staphylococcus aureus | y

---

# Tested on: Staphylococcus aureus
# PROTOCOL DETAILS: Ratio of MBC to MIC against methicillin-resistant Staphylococcus aureus clinical isolate 202311772
# Format: functional
Listed here: items and their measured Ratio.

COMPOUND SMILES | Ratio
C=C[C@]1(C)C[C@@H](OC(=O)CSCCOc2cc(=O)oc3ccccc23)[C@]2(C)[C@H](C)CC[C@]3(CCC(=O)[C@H]32)[C@@H](C)[C@@H]1O | 1
C=C[C@]1(C)C[C@@H](OC(=O)CSc2cc(=O)oc3ccc(F)cc23)[C@]2(C)[C@H](C)CC[C@]3(CCC(=O)[C@H]32)[C@@H](C)[C@@H]1O | >4
C=C[C@]1(C)C[C@@H](OC(=O)CSc2cc(=O)oc3ccccc23)[C@]2(C)[C@H](C)CC[C@]3(CCC(=O)[C@H]32)[C@@H](C)[C@@H]1O | 2

---

# Test system: Streptococcus pneumoniae
# PROTOCOL DETAILS: Antibacterial activity against penicillin-resistant Streptococcus pneumoniae ATCC 51916 assessed as bacterial growth inhibition measured after 20 hrs by broth dilution method
# Assay type: functional
Catalogue of MIC values

COMPOUND SMILES | MIC (µg/mL)
C=C[C@]1(C)C[C@@H](OC(=O)CSCCOc2cc(=O)oc3ccc(OC)cc23)[C@]2(C)[C@H](C)CC[C@]3(CCC(=O)[C@H]32)[C@@H](C)[C@@H]1O | 0.125
C=C[C@]1(C)C[C@@H](OC(=O)CSc2cc(=O)oc3ccc([N+](=O)[O-])cc23)[C@]2(C)[C@H](C)CC[C@]3(CCC(=O)[C@H]32)[C@@H](C)[C@@H]1O | 0.25
C=C[C@]1(C)C[C@@H](OC(=O)CSc2cc(=O)oc3ccc(Br)cc23)[C@]2(C)[C@H](C)CC[C@]3(CCC(=O)[C@H]32)[C@@H](C)[C@@H]1O | 0.063
C=C[C@]1(C)C[C@@H](OC(=O)CSCCOc2cc(=O)oc3cc(F)ccc23)[C@]2(C)[C@H](C)CC[C@]3(CCC(=O)[C@H]32)[C@@H](C)[C@@H]1O | 0.125
C=C[C@]1(C)C[C@@H](OC(=O)CSCCOc2cc(=O)oc3cc(Br)ccc23)[C@]2(C)[C@H](C)CC[C@]3(CCC(=O)[C@H]32)[C@@H](C)[C@@H]1O | 0.25
C=C[C@]1(C)C[C@@H](OC(=O)CSc2cc(=O)oc3cc(OC)ccc23)[C@]2(C)[C@H](C)CC[C@]3(CCC(=O)[C@H]32)[C@@H](C)[C@@H]1O | 0.063
C=C[C@]1(C)C[C@@H](OC(=O)CSCCOc2cc(=O)oc3cc(Cl)ccc23)[C@]2(C)[C@H](C)CC[C@]3(CCC(=O)[C@H]32)[C@@H](C)[C@@H]1O | 0.125
C=C[C@]1(C)C[C@@H](OC(=O)CSCCOc2cc(=O)oc3ccc(C)cc23)[C@]2(C)[C@H](C)CC[C@]3(CCC(=O)[C@H]32)[C@@H](C)[C@@H]1O | 0.25
C=C[C@]1(C)C[C@@H](OC(=O)CSCCOc2cc(=O)oc3cc(C)ccc23)[C@]2(C)[C@H](C)CC[C@]3(CCC(=O)[C@H]32)[C@@H](C)[C@@H]1O | 0.25
C=C[C@]1(C)C[C@@H](OC(=O)CSCCOc2cc(=O)oc3ccc(Br)cc23)[C@]2(C)[C@H](C)CC[C@]3(CCC(=O)[C@H]32)[C@@H](C)[C@@H]1O | 2
C=C[C@]1(C)C[C@@H](OC(=O)CSCCOc2cc(=O)oc3ccc(Cl)cc23)[C@]2(C)[C@H](C)CC[C@]3(CCC(=O)[C@H]32)[C@@H](C)[C@@H]1O | 2
